Test: Cmax in CD1 mouse at 20 mg/kg, po administered with 1% methylcellulose in water by LC/MS analysis
Assay type: ADME, organism-based
Design: dose 20 mg/kg, route oral
Conditions: in vivo
endpoint: Cmax (ng/mL)

(1) O=C(Nc1cc(C(F)(F)F)ccc1-n1cncn1)C1(c2ccccc2)CC1
(2) O=C(Nc1cc(C(F)(F)F)ccc1-n1cncn1)C1(c2cccc(C(F)(F)F)c2)CC1
Hi, I'm comparing two records. Which one has the lower Cmax, 1 or 2 ? Give the chosen item's label as your response. 2
(2: 1090 ng/mL, 1: 2340 ng/mL)

###

Experiment: Half life in CD1 mouse at 2 mg/kg, iv administered with 20% encapsine in water by LC/MS analysis
Settings: in vivo
endpoint: half-life (h)
State the answer as a number, implicitly in h.

// field: half-life; key: O=C(Nc1cc(C(F)(F)F)ccc1-n1cncn1)C1(c2ccccc2)CC1 ; value = 2.77

###

Experiment: Half life in mouse liver microsomes at 100 uM by HPLC analysis
Format: ADME, Microsome
endpoint: half-life at 100 µM (min)

Reference set (2 entries):
{"molecule": "CC(Oc1ccccc1)C(=O)Nc1cc(C(F)(F)F)ccc1-n1cncn1 (racemic)", "endpoint": "half-life at 100 µM", "value-measured": 12}
{"molecule": "CC(Oc1ccc(Cl)cc1)C(=O)Nc1cc(C(F)(F)F)ccc1-n1cncn1 (racemic)", "endpoint": "half-life at 100 µM", "value-measured": 13.6}

(A) CC(Oc1ccccc1Cl)C(=O)Nc1cc(C(F)(F)F)ccc1-n1cncn1 (racemic)
(B) CC(Oc1cccc(Cl)c1)C(=O)Nc1cc(C(F)(F)F)ccc1-n1cncn1 (racemic)
Hi, I'm comparing two records. Which one has the lower half-life at 100 µM, A or B ? Give the chosen item's label as your response. B
(B: 6.2 min, A: 11.7 min)

###

System: Liver microsomes
Assay: Intrinsic clearance in human liver microsomes assessed per gram of protein at 100 uM by HPLC analysis
Type: ADME, Microsome
endpoint: CLint (mL/min/g)

Reference set (2 entries):
{"compound": "CC(Oc1ccccc1Cl)C(=O)Nc1cc(C(F)(F)F)ccc1-n1cncn1 (racemic)", "CLint [mL/min/g]": 1.6}
{"compound": "CC(Oc1ccccc1)C(=O)Nc1cc(C(F)(F)F)ccc1-n1cncn1 (racemic)", "CLint [mL/min/g]": 2.9}

(1) CC(Oc1cccc(Cl)c1)C(=O)Nc1cc(C(F)(F)F)ccc1-n1cncn1 (racemic)
(2) CC(Oc1ccc(Cl)cc1)C(=O)Nc1cc(C(F)(F)F)ccc1-n1cncn1 (racemic)
Lab notebook, comparison: 1 versus 2 , higher CLint goes to which? Give the chosen item's label as your response. 2

###

Tested on: Liver
Assay: Intrinsic clearance in mouse liver microsomes assessed per gram of protein at 100 uM by HPLC analysis
Type: ADME, Microsome
endpoint: CLint (mL/min/g)

Reference set (2 entries):
{"compound": "CC(Oc1ccccc1Cl)C(=O)Nc1cc(C(F)(F)F)ccc1-n1cncn1 (racemic)", "units-symbol": "mL/min/g", "value-measured": 5.6}
{"compound": "CC(Oc1ccccc1)C(=O)Nc1cc(C(F)(F)F)ccc1-n1cncn1 (racemic)", "units-symbol": "mL/min/g", "value-measured": 5.3}

(1) CC(Oc1ccc(Cl)cc1)C(=O)Nc1cc(C(F)(F)F)ccc1-n1cncn1 (racemic)
(2) CC(Oc1cccc(Cl)c1)C(=O)Nc1cc(C(F)(F)F)ccc1-n1cncn1 (racemic)
Hi, I'm comparing two records. Which one has the lower CLint, 1 or 2 ? Give the chosen item's label as your response. 1

###

Assay: Clearance in CD1 mouse at 2 mg/kg, iv and 20 mg/kg, po by LC/MS analysis
Type: ADME, organism-based
Settings: in vivo
endpoint: clearance (mL/min/kg)
State the answer as a number, implicitly in mL/min/kg.

// field: clearance; key: O=C(Nc1cc(C(F)(F)F)ccc1-n1cncn1)C1(c2cccc(C(F)(F)F)c2)CC1 ; value = 14.3

###

Experiment: Solubility of the compound in DMSO by chemiluminescent nitrogen detection assay
Format: physicochemical
endpoint: solubility (µM)

(1) O=C(Nc1cc(C(F)(F)F)ccc1-n1cncn1)C1(c2cccc(C(F)(F)F)c2)CC1
(2) O=C(Nc1cc(C(F)(F)F)ccc1-n1cncn1)C1(c2ccccc2)CC1
Lab notebook, comparison: 1 versus 2 , higher solubility goes to which? Give the chosen item's label as your response. 2

###

Test system: Plasmodium falciparum
Assay: Antiplasmodial activity against Plasmodium falciparum 3D7 infected in human erythrocytes assessed as inhibition of [3H]hypoxanthine incorporation after 24 hrs by microbeta counter
Assay type: functional, organism-based
endpoint: pIC50
Formally, pIC50 is defined as -log10 of the concentration c, with c in mol/L.

{"compound": "CC(Oc1ccc(Cl)cc1)C(=O)Nc1cc(C(F)(F)F)ccc1N1CCOCC1 (racemic)", "endpoint": "pIC50", "value-measured": 6.36}
{"compound": "CC(Oc1ccc(Cl)cc1)C(=O)Nc1cc(C(F)(F)F)ccc1-n1cncn1 (racemic)", "endpoint": "pIC50", "value-measured": 6.40}
{"compound": "CC(Oc1ccccc1)C(=O)Nc1cc(C(F)(F)F)ccc1-n1cncn1 (racemic)", "endpoint": "pIC50", "value-measured": 6.05}
{"compound": "CC(Oc1cccc(Cl)c1)C(=O)Nc1cc(C(F)(F)F)ccc1-n1cncn1 (racemic)", "endpoint": "pIC50", "value-measured": 6.49}
{"compound": "O=C(Nc1cc(Cl)ccc1-n1cncn1)C1(c2ccccc2)CC1", "endpoint": "pIC50", "value-measured": 5.77}
{"compound": "CC(Oc1cccc(C(F)(F)F)c1)C(=O)Nc1cc(C(F)(F)F)ccc1-n1cncn1 (racemic)", "endpoint": "pIC50", "value-measured": 6.55}
{"compound": "CC(Oc1ccccc1Cl)C(=O)Nc1cc(C(F)(F)F)ccc1-n1cncn1 (racemic)", "endpoint": "pIC50", "value-measured": 6.72}
{"compound": "O=C(Nc1cc(C(F)(F)F)ccc1-n1cncn1)C1(c2ccccc2)CC1", "endpoint": "pIC50", "value-measured": 7.18}

// field: pIC50; key: Cc1ccnc2nc(C(=O)Nc3cc(C(F)(F)F)ccc3N3CCCCC3)nn12 ; value = 5.40

###

Assay: Half life in human liver microsomes at 100 uM by HPLC analysis
Format: ADME, Microsome
endpoint: half-life at 100 µM (min)

{"molecule": "CC(Oc1ccc(Cl)cc1)C(=O)Nc1cc(C(F)(F)F)ccc1-n1cncn1 (racemic)", "units-symbol": "min", "half-life at 100 µM": 21.8}
{"molecule": "CC(Oc1ccccc1)C(=O)Nc1cc(C(F)(F)F)ccc1-n1cncn1 (racemic)", "units-symbol": "min", "half-life at 100 µM": 24.7}

###

Assay: Protein binding in mouse plasma
Type: ADME, cell-free
Details: read-out: PPB (converted)
endpoint: fraction unbound

(a) O=C(Nc1cc(C(F)(F)F)ccc1-n1cncn1)C1(c2ccccc2)CC1
(b) O=C(Nc1cc(C(F)(F)F)ccc1-n1cncn1)C1(c2cccc(C(F)(F)F)c2)CC1
Lab notebook, comparison: a versus b , higher fraction unbound goes to which? Give the chosen item's label as your response. a

###

Experiment: Protein binding in human plasma
Type: ADME, cell-free
Conditions: read-out: PPB
endpoint: fraction unbound
Just the number, please, no unit attached.

// field: fraction unbound; key: O=C(Nc1cc(C(F)(F)F)ccc1-n1cncn1)C1(c2ccccc2)CC1 ; value = 0.01

###

Test: Oral bioavailability in CD1 mouse at 20 mg/kg administered with 1% methylcellulose in water by LC/MS analysis
Format: ADME, organism-based
Details: in vivo
endpoint: bioavailability (%)

(A) O=C(Nc1cc(C(F)(F)F)ccc1-n1cncn1)C1(c2cccc(C(F)(F)F)c2)CC1
(B) O=C(Nc1cc(C(F)(F)F)ccc1-n1cncn1)C1(c2ccccc2)CC1
Lab notebook, comparison: A versus B , higher bioavailability goes to which? Give the chosen item's label as your response. B
